Here, each record is paired with measured protein stability index data.
B1: LCOR (parent)
chain: YKVKERLGTLKNPPKKKMKLMSG

Variants of: B1
Test: protein stability index of a GFP-peptide fusion (GPS, HEK-293T) (PSI 1-6); higher = more stable;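 also: lentivirally expressed fusions sorted by FACS into six bins by GFP to DsRed ratio, PSI derived from sequencing read proportions per bin multiplied by bin number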
Conditions: c terminus: native
# answer = number (no unit)

YKVKERLGTLRNPPKKKMKLMSG 2.39
YKVKERLGTLKGPPKKKMKLMSG 2.84
YKVKERLGTLKNPPKKAMKLMSG 2.41
YKVKERLGTSKNPPKKKMKLMSG 1.85
MKVKERLGTLKNPPKKKMKLMSG 1.93

Query: Given the variant YKCKERLGTLKNPPKKKMKLMSG , what is its reported protein stability index?
Result: 1.6

Query: Item: YKVKESLGTLKNPPKKKMKLMSG
Result: 3.27

Query: Item: YKVKERLGCLKNPPKKKMKLMSG
Result: 2.2

All figures here come from the supplement of paper PMC10567573.
